# test_summary: chemical genetic growth profiling, strain panel (AID 1159580);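 also: tested at 20 µM; growth read once vehicle control cultures reached saturation at 30 °C; 1 = growth at the plate median or of vehicle wells; lower values mean less growth of the strain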
# experimental_setup: S. cerevisiae deletion strains, growth OD, locus YMR307W, strain GAS1, active compounds read low
Screen size: about 5,500 compounds; about 2,000 (36%) were called active. Roughly 18% stayed inconclusive and do not appear here. This is one part of the list.
The following compounds are listed with their measured normalized growth values.
Quick one: just the number, no unit, thanks!

compound	value_kind	observed
COC(=O)C(C)c1ccc(C(=O)c2cccs2)cc1 (centres undefined)	normalized growth	0.973

Req: I'd like to know its normalized growth. The compound in question is "COC(=O)[C@@H](N)Cc1ccc(O)c(O)c1"
Resp: 0.995

Req: I'd like to know its normalized growth. The compound in question is "N[C@H](CO)C(=O)O"
Resp: 1

Req: I'd like to know its normalized growth. The compound in question is C[C@@H]1C(=O)OC2[C@H](O)C34[C@@H]5OC(=O)[C@@]3(O[C@@H]3OC(=O)[C@H](O)[C@@]34[C@H](C(C)(C)C)[C@H]5O)[C@]21O (some centres undefined)
Resp: 0.979

Req: I'd like to know its normalized growth. The compound in question is CC(C(=O)O)c1ccc(C(=O)c2cccs2)cc1 (centres undefined)
Resp: 0.997

Req: I'd like to know its normalized growth. The compound in question is C[N+]1(C)C2CC(OC(=O)C(CO)c3ccccc3)CC1C1OC12 (centres undefined)
Resp: 1.01

Req: I'd like to know its normalized growth. The compound in question is "CO/N=C(\C(=O)N[C@@H]1C(=O)N2C(C(=O)O)=C(CSc3nc(=O)c(O)nn3C)CS[C@H]12)c1csc(N)n1"
Resp: 0.981

Req: I'd like to know its normalized growth. The compound in question is "CN1CCc2cccc(Cl)c2CC1"
Resp: 1.01

Req: I'd like to know its normalized growth. The compound in question is "OCc1cnc[nH]1"
Resp: 1

* * *

The following compounds are listed with their measured normalized growth values.
# test_summary: chemical genetic growth profiling, strain panel (AID 1159580);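 also: tested at 20 µM; growth read once vehicle control cultures reached saturation at 30 °C; 1 = growth at the plate median or of vehicle wells; lower values mean less growth of the strain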
# experimental_setup: S. cerevisiae deletion strains, growth OD, locus YDR318W, strain mcm21, active compounds read low
About 2,000 (36%) of roughly 5,500 compounds were called active. Roughly 18% stayed inconclusive and do not appear here. The list shows a part of the results.
Quick one: just the number, no unit, thanks!

Record excerpt, results attached:
> print(dat)
                                   compound  observed
1  COc1cc([C@@H]2c3cc4c(c(O)c3C[C@H]3COC(=O)[C@@H]32)OCO4)cc(OC)c1OC     0.986
2                   CCN(CC)C(=O)c1cccc(C)c1         1
3                    O=C1NC(=O)C(=O)C(=O)N1     0.993
4  C=C1CCC(=O)C(C)CCC2C1CC2(C)C (stereo not drawn)     0.998
5  C=C1C(=O)OC2CC1C(OC(C)=O)C/C(C)=C/CC/C(C)=C/CC[C@]2(C)O (stereo partly drawn)         1
6  CC(C)C(C)/C=C/C(C)[C@H]1CCC2C3=CCC4CC(=O)CC[C@]4(C)C3CC[C@@]21C (stereo partly drawn)      1.01
7                    Cc1cccc(C)c1NC1=NCCCS1     0.972

Req: I'd like to know its normalized growth. The compound in question is "CCNC(=O)CC[C@H](N)C(=O)O"
Resp: 0.999
